# TARGET_ENTITY: UniProt O75164
# EXPERIMENT_DESCRIPTION: Binding affinity to thrombin cleavable N-terminal 6His-tagged and 13C-IVLM labeled human KDM4A tandem TUDOR domain (897 to 1011 residues) expressed in Escherichia coli BL21(DE3)-T1R at 1 mM by 13C HSQC NMR spectroscopy
ENDPOINT: Kd (µM)
Write down the numeric answer in µM and omit the unit.

// recorded Kd for CN(C)CC1C2CCC(c3ccccc3)(C2)C1O (stereo unspecified) : 80

---

# TARGET_ENTITY: Lysine-specific demethylase 4A (Homo sapiens, UniProt O75164)
# Sequence (O75164 whole entry, the tested form may be a part): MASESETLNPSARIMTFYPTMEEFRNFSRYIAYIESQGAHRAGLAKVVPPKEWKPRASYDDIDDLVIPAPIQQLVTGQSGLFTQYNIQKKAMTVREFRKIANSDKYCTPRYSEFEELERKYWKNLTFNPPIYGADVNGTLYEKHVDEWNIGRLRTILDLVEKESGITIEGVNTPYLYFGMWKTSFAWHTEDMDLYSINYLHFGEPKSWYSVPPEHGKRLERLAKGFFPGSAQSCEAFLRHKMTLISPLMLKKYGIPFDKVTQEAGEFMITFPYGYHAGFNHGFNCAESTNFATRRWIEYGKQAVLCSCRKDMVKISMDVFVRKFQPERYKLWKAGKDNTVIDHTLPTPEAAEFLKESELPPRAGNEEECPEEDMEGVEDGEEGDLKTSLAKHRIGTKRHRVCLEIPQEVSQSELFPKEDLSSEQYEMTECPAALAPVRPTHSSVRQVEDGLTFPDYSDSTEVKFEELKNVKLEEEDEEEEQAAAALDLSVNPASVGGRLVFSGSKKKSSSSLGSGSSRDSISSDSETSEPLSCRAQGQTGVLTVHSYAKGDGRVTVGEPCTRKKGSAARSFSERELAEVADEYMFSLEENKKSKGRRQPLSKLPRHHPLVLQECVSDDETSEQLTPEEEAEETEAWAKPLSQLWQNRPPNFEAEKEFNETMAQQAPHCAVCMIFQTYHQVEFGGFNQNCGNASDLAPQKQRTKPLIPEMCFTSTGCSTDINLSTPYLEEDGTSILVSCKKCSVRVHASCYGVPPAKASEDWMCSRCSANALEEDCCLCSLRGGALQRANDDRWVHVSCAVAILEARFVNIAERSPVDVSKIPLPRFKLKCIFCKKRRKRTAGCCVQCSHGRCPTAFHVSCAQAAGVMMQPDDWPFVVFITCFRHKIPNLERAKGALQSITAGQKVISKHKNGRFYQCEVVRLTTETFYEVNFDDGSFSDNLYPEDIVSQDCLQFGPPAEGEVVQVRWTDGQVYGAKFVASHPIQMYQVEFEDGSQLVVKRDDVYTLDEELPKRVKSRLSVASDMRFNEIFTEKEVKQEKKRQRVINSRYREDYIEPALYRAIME
# EXPERIMENT_DESCRIPTION: Inhibition of NanoLuc-KDM4A-TUDOR domain (unknown origin) binding to Histone H3.3-HaloTag expressed in 293T cells incubated for 18 hrs by Nano-BRET based target engagement assay
ENDPOINT: pEC50
Schema: pEC50 number; meaning minus log10 of the concentration expressed in molar units.

// recorded pEC50 for CN(C)C[C@H]1C2CCC(c3ccccc3)(C2)[C@H]1O (some centres not stated) : 3.98

// recorded pEC50 for CN(C)C[C@@H]1C2CCC(c3ccccc3)(C2)[C@@H]1O (some centres not stated) : 2.92

---

# TARGET_ENTITY: UniProt:O94953
# Sequence (O94953 whole entry): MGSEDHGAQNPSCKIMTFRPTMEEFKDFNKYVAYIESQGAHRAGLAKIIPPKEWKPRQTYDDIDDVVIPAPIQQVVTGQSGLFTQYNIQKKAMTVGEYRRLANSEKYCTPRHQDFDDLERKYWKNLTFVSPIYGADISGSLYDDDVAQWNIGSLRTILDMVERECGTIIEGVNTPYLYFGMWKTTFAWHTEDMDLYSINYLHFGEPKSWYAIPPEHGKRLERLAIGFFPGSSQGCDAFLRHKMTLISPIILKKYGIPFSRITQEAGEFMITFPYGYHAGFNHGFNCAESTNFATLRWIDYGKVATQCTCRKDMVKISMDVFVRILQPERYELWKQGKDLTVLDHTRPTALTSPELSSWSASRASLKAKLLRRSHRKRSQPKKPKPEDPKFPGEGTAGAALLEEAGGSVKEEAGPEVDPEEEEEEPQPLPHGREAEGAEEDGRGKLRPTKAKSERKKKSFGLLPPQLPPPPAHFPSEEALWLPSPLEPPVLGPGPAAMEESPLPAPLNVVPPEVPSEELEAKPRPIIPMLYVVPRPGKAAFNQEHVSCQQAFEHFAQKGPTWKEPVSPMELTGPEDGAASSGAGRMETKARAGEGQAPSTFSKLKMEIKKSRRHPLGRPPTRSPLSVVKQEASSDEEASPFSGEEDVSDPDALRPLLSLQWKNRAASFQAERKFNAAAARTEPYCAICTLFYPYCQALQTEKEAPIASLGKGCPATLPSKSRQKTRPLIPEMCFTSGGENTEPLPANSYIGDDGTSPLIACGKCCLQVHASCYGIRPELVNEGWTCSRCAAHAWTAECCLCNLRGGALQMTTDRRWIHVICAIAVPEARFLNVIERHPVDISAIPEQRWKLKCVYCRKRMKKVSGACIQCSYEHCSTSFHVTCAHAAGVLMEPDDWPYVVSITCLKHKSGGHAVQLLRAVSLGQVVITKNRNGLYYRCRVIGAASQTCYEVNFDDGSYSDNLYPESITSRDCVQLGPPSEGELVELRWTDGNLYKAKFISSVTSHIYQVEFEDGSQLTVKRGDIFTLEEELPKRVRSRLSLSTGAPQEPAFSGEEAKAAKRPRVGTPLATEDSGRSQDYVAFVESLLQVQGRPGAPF
ENDPOINT: Kd (µM)
Write down the numeric answer in µM and omit the unit.

// recorded Kd for CN(C)C[C@H]1C2CCC(c3ccccc3)(C2)[C@H]1O (stereo partly specified) : 127
